system tested: T1, human coagulation factor XI (FXI) (human, UniProt P03951 19-625)
T1 construct: mature; also called plasma FXI; human FXI
measurement description: SPR (Biacore), FXI immobilized on CM5 chip, mAb as analyte
recorded endpoint: pKd
Remember, pKd is on a log scale: it is -log10 of the molar concentration.

Answer with the recorded pKd of composite human mAb VH1/Vκ4 (antibody, V domains shown, Human IgG4 (S241P hinge mutant) heavy chain and human kappa light chain) VH: QVQLVQSGSELKKPGASVKLSCKASGYTFTRYWMHWVKQAHGQGLEWIGNIYPDSDSTNYDEKFRTRATLTADTSTSTAYMHLSSLTSEDSAVYYCTRMGFYAMDYWGQGTSVTVSS VL: DIVMTQSPSSLSASVGDRVTITCKASENVVTYVSWFQQKPGQAPKLLIYGASNRYTGVPDRFSGSGSGTDFTLTISSLQAEDVATYHCGQSYSYPLTFGQGTKLEIKR only.
9.46
